meta.source: patent US20260317324A1

- Test system: BRAF V600E (Homo sapiens, UniProt P15056, V600E)
- Construct: endogenous C-terminal HiBiT fusion tag on BRAF V600E allele; endogenous in cells; host or cells: A375 clone 1F10 (CRISPR-Cas9 knock-in of the HiBiT tag; parental A375 from ATCC)
- Sequence (P15056 whole entry V600E, the tested form may be a part): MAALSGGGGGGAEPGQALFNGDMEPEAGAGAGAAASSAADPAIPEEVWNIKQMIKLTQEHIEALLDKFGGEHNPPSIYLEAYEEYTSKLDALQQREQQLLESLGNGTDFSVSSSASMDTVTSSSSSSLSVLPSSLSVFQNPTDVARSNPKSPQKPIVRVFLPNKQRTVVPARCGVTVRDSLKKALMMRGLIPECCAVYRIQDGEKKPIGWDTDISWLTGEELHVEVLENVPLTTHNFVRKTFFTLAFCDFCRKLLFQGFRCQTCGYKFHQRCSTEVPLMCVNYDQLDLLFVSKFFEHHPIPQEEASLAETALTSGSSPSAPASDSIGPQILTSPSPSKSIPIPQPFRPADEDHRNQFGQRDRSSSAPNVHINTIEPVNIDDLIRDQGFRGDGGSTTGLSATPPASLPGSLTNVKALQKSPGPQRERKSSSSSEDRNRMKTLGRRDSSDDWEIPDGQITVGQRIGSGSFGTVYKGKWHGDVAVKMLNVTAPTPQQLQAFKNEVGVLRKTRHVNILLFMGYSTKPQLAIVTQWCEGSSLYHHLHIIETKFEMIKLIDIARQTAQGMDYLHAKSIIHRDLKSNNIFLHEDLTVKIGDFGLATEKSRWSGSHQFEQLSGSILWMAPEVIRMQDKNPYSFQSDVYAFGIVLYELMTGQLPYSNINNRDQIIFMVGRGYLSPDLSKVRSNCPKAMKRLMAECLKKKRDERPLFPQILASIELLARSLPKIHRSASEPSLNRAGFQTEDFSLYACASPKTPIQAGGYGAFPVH
- Test name: BRAF HiBiT degradation assay, C-terminal HiBiT-tagged BRAF V600E A375 cells (clone 1F10), Nano-Glo HiBiT Lytic assay
- Format: cell-based
- Conditions used: A375 (BRAF V600E); DC50 at 50%: fitted conc. at Y=50
Quantity measured: DC50

| Compound | DC50 |
| --- | --- |
| CCCS(=O)(=O)Nc1cccc(-c2nc(C(C)(C)C)sc2-c2ccnc(Nc3cnn(C4CCN(C(=O)C[C@@H]5CCN(c6ccc(C7CCC(=O)NC7=O)cc6)C5)CC4)c3)n2)c1F (mixture of isomers) | > 0.5 µM |
| CCCS(=O)(=O)Nc1cccc(-c2nc(C3CCN(C(=O)C4CCN(C(=O)C5CCN(c6ccc(C7CCC(=O)NC7=O)cc6)CC5)CC4)CC3)sc2-c2ccncn2)c1F (racemic) | < 0.01 µM |
| CCCS(=O)(=O)Nc1cccc(-c2cn(-c3ccc(N4CCN(CC5CCN(c6ccc(C7CCC(=O)NC7=O)cc6)CC5)CC4)cc3)nc2-c2ccncc2)c1F (racemic) | 0.01 to 0.05 µM |
| CCCS(=O)(=O)Nc1cccc(-c2nc(C3CCN(CC4CCN(C(=O)C5CCN(c6ccc(C7CCC(=O)NC7=O)cn6)CC5)CC4)CC3)sc2-c2ccnc(N)n2)c1F (racemic) | < 0.01 µM |
| CCCS(=O)(=O)Nc1cccc(-c2nc(C3CCN(C(=O)C4CCN(CC5CCN(c6ccc([C@H]7CCC(=O)NC7=O)cc6)CC5)CC4)CC3)sc2-c2ccnc(NC)n2)c1F | < 0.01 µM |

Inquiry: State the recorded DC50 for this entry: CCCS(=O)(=O)Nc1cccc(-c2nc(C(C)(C)C)sc2-c2ccnc(NCC3CCN(CC4CCN(c5ccc(C(=O)N[C@H]6CCC(=O)NC6=O)nc5)CC4)CC3)n2)c1F
Reply text: 0.05 to 0.5 µM

Inquiry: State the recorded DC50 for this entry: CCCS(=O)(=O)Nc1cccc(-c2nc(C(C)(C)C)sc2-c2ccnc(Nc3cccc(OC4CCN(C(=O)C5CCN(c6ccc(C(=O)NC7CCC(=O)NC7=O)nc6)CC5)CC4)c3)n2)c1F (racemic)
Reply text: 0.01 to 0.05 µM

Inquiry: State the recorded DC50 for this entry: CCCS(=O)(=O)Nc1cccc(-c2nc(C(C)(C)C)sc2-c2ccnc(N[C@H]3CC[C@H](N4CCN(CC5CCN(c6ccc(C7CCC(=O)NC7=O)cn6)CC5)CC4)CC3)n2)c1F (mixture of isomers)
Reply text: 0.05 to 0.5 µM

Inquiry: State the recorded DC50 for this entry: CCCS(=O)(=O)Nc1cccc(-c2nc(C3CCN(C(=O)CN4CCC5(CC4)CN(c4ccc6c(c4)C(=O)N(C4CCC(=O)NC4=O)C6=O)C5)CC3)sc2-c2ccnc(N)n2)c1F (racemic)
Reply text: < 0.01 µM

Inquiry: State the recorded DC50 for this entry: CCCS(=O)(=O)Nc1cccc(-c2nc(C3(C)CCN(C(=O)C4CCN(CC5CCN(c6ccc(C7CCC(=O)NC7=O)cc6)CC5)CC4)CC3)sc2-c2ccnc(N)n2)c1F (racemic)
Reply text: < 0.01 µM

Inquiry: State the recorded DC50 for this entry: CCCS(=O)(=O)Nc1cccc(-c2cn(-c3ccc(N4CCN(CC5CCN(c6ccc(C7CCC(=O)NC7=O)cc6F)CC5)CC4)cc3)nc2-c2ccncc2)c1F (racemic)
Reply text: 0.01 to 0.05 µM

Inquiry: State the recorded DC50 for this entry: CCCS(=O)(=O)Nc1cccc(-c2nc(C(C)(C)C)sc2-c2ccnc(Nc3cccc(OC4CCN(CC5(C)CCN(c6ccc(C7CCC(=O)NC7=O)cn6)CC5)CC4)c3)n2)c1F (racemic)
Reply text: 0.01 to 0.05 µM
